- assay comment: Selectivity ratio of TD50 for mouse 3T3 cells to MIC for Cryptococcus neoformans H99S
- Type: toxicity
Where a SMILES comes first, the peptide text is derived from it. [ ]: non-standard residue; d: D form. N(tridecyl)Gly = CCCCCCCCCCCCCNCC(=O)O; Gly(N-2-aminoethyl) = NCCNCC(=O)O; Gly(N-cHex) = O=C(O)CNC1CCCCC1; Nlys = NCCCCNCC(=O)O
quantity name: selectivity ratio
Please reply with the value in numeric form only.

Could you tell me which selectivity ratio is on file for CCCCCCCCCCCCCNCC(=O)N(CC(=O)N(CCCCN)CC(=O)N(CCN)CC(=O)N(CC(N)=O)C1CCCCC1)C1CCCCC1 (H-[N(tridecyl)Gly][Gly(N-cHex)][Nlys][Gly(N-2-aminoethyl)][Gly(N-cHex)]-NH2) ?
38

The reported measurements were obtained from ChEMBL document CHEMBL4837256.
